Molecular target: hGIPR (Homo sapiens, UniProt P48546)
Sequence (P48546 22-466): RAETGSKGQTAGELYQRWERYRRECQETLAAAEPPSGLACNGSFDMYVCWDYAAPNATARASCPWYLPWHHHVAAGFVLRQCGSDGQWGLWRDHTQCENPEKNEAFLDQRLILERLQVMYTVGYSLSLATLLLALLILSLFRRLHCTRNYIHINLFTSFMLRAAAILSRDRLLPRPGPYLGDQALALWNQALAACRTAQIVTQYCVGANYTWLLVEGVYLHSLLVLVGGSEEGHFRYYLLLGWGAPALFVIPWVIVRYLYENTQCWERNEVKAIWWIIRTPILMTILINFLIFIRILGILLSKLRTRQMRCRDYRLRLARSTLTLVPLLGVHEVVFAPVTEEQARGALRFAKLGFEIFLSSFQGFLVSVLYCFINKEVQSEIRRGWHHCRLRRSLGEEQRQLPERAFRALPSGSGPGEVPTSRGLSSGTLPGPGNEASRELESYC
Assay: Functional cAMP activation in the presence of 0.1% casein (no HSA);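 as to Relative cAMP EC50, hGIPR: intracellular cAMP rise after 30 min at 37 °C read by HTRF against a standard curve, scaled between buffer alone (0%) and top control ligand concentration (100%), four-parameter fit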
Type: cell-based
Settings: in the presence of 0.1% casein (no HSA); geometric mean; read-out: Relative cAMP EC50, hGIPR
Starred links: 1 amine or outer side, 2 acyl side, 3 side chain; linkers in the order of their positions; H or OH if unused. Non-standard residues stand in square brackets, D forms with d. Groups on a side chain read outwards from the residue. No end group written: not given here. *: point of attachment. C20 diacid = O=C(O)CCCCCCCCCCCCCCCCCCC(=O)*; C18 diacid = O=C(O)CCCCCCCCCCCCCCCCC(=O)*; γGlu = O=C(O)[C@H](CCC(=O)[*:2])N[*:1]; αMe4Pal = C[C@](N)(Cc1ccncc1)C(=O)O; αMeY = C[C@](N)(Cc1ccc(O)cc1)C(=O)O; 4Pal = N[C@@H](Cc1ccncc1)C(=O)O; αMeL = CC(C)C[C@](C)(N)C(=O)O; Orn = NCCC[C@H](N)C(=O)O; AEEA = NCCOCCOCC(=O)O; Aib = CC(C)(N)C(=O)O
# EC50 per entry
parameter: EC50 (nM)

1) Y[Aib]QGTFTSDFSK[αMeL]LDKK([AEEA-γGlu-C20 diacid])AQ[Aib]AFIQWLLEGGPSSGAPPPSEG-NH2 [Example 39]
0.299
2) H-Y[Aib]QGTFTSD[4Pal]S[Orn][αMeL]LD[Orn]K([γGlu-γGlu-C18 diacid])AQ[αMe4Pal]AFIEYLIAGGPSSGAPPPSGSEE-NH2 [Example 1059]
0.468
3) H-Y[Aib]QGTFTSDFS[Orn][αMeL]LDKK([AEEA-γGlu-C18 diacid])AQ[αMe4Pal]AFIE[αMeY]LIEGGPSSGAPPPSGS-NH2 [Example 845]
0.178

====

# pEC50 per entry
target: hGLP-1R (Homo sapiens); assay: Functional cAMP activation in the presence of 0.1% casein (no HSA); assay type: cell-based; details: in the presence of 0.1% casein (no HSA); geometric mean; read-out: Relative cAMP EC50, hGLP-1R;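 as to Relative cAMP EC50, hGLP-1R: intracellular cAMP rise after 30 min at 37 °C read by HTRF, normalized between buffer only (0%) and maximal control ligand (100%), four-parameter variable-slope fit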
Sequence (P43220 24-463): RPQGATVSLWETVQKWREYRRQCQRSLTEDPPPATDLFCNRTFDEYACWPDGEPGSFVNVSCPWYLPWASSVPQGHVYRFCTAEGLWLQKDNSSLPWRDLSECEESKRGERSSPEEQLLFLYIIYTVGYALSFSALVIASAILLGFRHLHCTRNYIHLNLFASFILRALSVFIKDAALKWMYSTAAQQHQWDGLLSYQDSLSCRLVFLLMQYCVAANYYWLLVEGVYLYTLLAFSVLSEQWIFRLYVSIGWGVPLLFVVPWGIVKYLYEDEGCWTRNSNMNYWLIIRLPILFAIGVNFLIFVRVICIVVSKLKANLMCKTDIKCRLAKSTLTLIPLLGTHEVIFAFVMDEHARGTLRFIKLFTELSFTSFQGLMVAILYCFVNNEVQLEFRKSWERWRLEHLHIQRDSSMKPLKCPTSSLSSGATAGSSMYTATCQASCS
pEC50: −log10 of the molar value. Starred links: 1 amine or outer side, 2 acyl side, 3 side chain; linkers in the order of their positions; H or OH if unused. Non-standard residues stand in square brackets, D forms with d. Groups on a side chain read outwards from the residue. No end group written: not given here. *: point of attachment. C20 diacid = O=C(O)CCCCCCCCCCCCCCCCCCC(=O)*; C18 diacid = O=C(O)CCCCCCCCCCCCCCCCC(=O)*; αMePhe(2-F) = C[C@](N)(Cc1ccccc1F)C(=O)O; γGlu = O=C(O)[C@H](CCC(=O)[*:2])N[*:1]; NMeY = CN[C@@H](Cc1ccc(O)cc1)C(=O)O; αMe4Pal = C[C@](N)(Cc1ccncc1)C(=O)O; αMeY = C[C@](N)(Cc1ccc(O)cc1)C(=O)O; αMeF = C[C@](N)(Cc1ccccc1)C(=O)O; 4Pal = N[C@@H](Cc1ccncc1)C(=O)O; αMeL = CC(C)C[C@](C)(N)C(=O)O; αMeS = C[C@](N)(CO)C(=O)O; Orn = NCCC[C@H](N)C(=O)O; Dap = NC[C@H](N)C(=O)O; AEEA = NCCOCCOCC(=O)O; Aib = CC(C)(N)C(=O)O
parameter: pEC50

1. Y[Aib]QGTFTSD[4Pal]SQ[αMeL]LD[Orn]K([dE-γGlu-C18 diacid])AQ[αMe4Pal]AFIE[αMeY]LLEGGPSSGAPPPSGSEE-NH2 [Example 1058]
8.35
2. H-Y[Aib]QGTFTSDYSI[αMeL]LDKQAAK([AEEA-AEEA-γGlu-C20 diacid])QFIEWLIEGGPSSGEPPPGEG-NH2 [Example 318]
9.16
3. H-Y[Aib]QGT[αMePhe(2-F)]TSDYSKLLDKIAQK([AEEA-γGlu-C18 diacid])AFIEYLIEGGPSSGEPPPSEG-NH2 [Example 330]
9.20
4. H-Y[Aib]QGTFTSDFS[Orn][αMeL]LDKK([AEEA-γGlu-C18 diacid])AQ[Aib]AFIEWLLEGGESSGEPPPSGE-NH2 [Example 123]
8.32
5. Y[Aib]QGTFTSDFS[Orn][αMeL]LDKK([AEEA-γGlu-C18 diacid])AQ[Aib]AFIEYLLAGGPSSGEPPPEGE-NH2 [Example 98]
8.36
6. H-Y[Aib]QGTFTSD[4Pal]SQ[αMeL]LDKK([Glu-γGlu-Glu-C18 diacid])AQ[αMe4Pal]AFIEYLIE[Aib]GPSSGAPPPSGS-NH2 [Example 896]
8.33
7. H-Y[Aib]QGTFTSDFS[Orn][αMeL]LDKK([AEEA-γGlu-C18 diacid])AQ[Aib]AFIEYLLE[Aib]GHSSGAPPPSGE-NH2 [Example 247]
8.55
8. H-Y[Aib]QGTFTSD[4Pal]SQ[αMeL]LD[Orn]K([γGlu-γGlu-C18 diacid])AQ[αMe4Pal]AFIEYLIA[Aib]GPSSGAPPPSGSEE-NH2 [Example 1091]
8.91
9. H-[NMeY][Aib]QGT[αMeF]TSDYSILLDKIAAK([AEEA-AEEA-γGlu-C20 diacid])AFVQWLIAGGPSSGEPPPSEG-NH2 [Example 300]
8.98
10. H-Y[Aib]QGTFTSDFS[Orn][αMeL]LDKK([AEEA-γGlu-C18 diacid])AQ[Aib]AFIEYLLE[Aib]GPSSGAPPPSGS-NH2 [Example 74]
8.48
11. H-Y[Aib]QGTFTSD[4Pal]SR[αMeL]LDKK([AEEA-γGlu-C18 diacid])AQ[αMe4Pal]AFIEYLIE[Aib]GESSGAPPPSGE-NH2 [Example 225]
8.61
12. H-Y[Aib]QGTFTSD[4Pal][αMeS]I[αMeL]LD[Orn]K([dE-γGlu-C18 diacid])AQ[αMe4Pal]QFIQ[αMeY]LIE[Aib]GPSSGAPPPSGGGE-NH2 [Example 1136]
9.34
13. H-Y[Aib]QGTFTSDFS[Orn][αMeL]LDKK([AEEA-γGlu-C18 diacid])AQ[αMe4Pal]DFIEYLIE[Aib]GPSSGAPPPSGS-NH2 [Example 880]
8.11
14. Y[Aib]QGTFTSD[4Pal]SQ[αMeL]LDKK([dE-γGlu-C18 diacid])AQ[αMe4Pal]AFIEYLIE[Aib]GPSSGAPPPSGSE-NH2 [Example 924]
8.51
15. H-Y[Aib]QGTFTSDFSK[αMeL]LDKK([AEEA-γGlu-C20 diacid])AQ[Aib]AFIEYLLAGGPSSGEPPPSSE-NH2 [Example 3]
8.78
16. H-Y[Aib]QGTFTSDFS[Orn][αMeL]LDKK([AEEA-AEEA-γGlu-C18 diacid])AQ[Aib]AFIEYLLE[Aib]G[4Pal]SSGAPPPSGE-NH2 [Example 189]
8.35
17. H-Y[Aib]QGTFTSDYSI[αMeL]LDKQAAK([AEEA-AEEA-γGlu-C20 diacid])QFVEWLIA[Aib]GPSSGEPPPGEG-NH2 [Example 333]
9.15
18. H-Y[Aib]QGTFTSDFSK[αMeL]LDKK([AEEA-γGlu-C20 diacid])AQ[Aib]AFIEWLLAGGPSSGEPPPSEG-NH2 [Example 20]
8.61
19. H-Y[Aib]QGTFTSDFSK[αMeL]LDKK([AEEA-AEEA-γGlu-C20 diacid])AQ[Aib]AFIEYLLEGGPSSGAPPPGEG-NH2 [Example 17]
8.53
20. H-Y[Aib]QGTFTSDYS[Dap][αMeL]LDKK([AEEA-γGlu-C18 diacid])AQ[Aib]AFIEYLLEGGESSGAPPPSGS-NH2 [Example 360]
8.23
21. H-Y[Aib]QGTFTSDYSK[αMeL]LDKK([AEEA-γGlu-C20 diacid])AQ[Aib]AFVQWLLEGGPSSGEPPPSEG-NH2 [Example 343]
8.88
22. H-Y[Aib]QGTFTSDFS[Orn][αMeL]LDKK([AEEA-AEEA-γGlu-C20 diacid])AQ[Aib]AFIEYLLE[Aib]GPSSGEPPPGEG-NH2 [Example 69]
8.49
23. H-Y[Aib]QGTFTSD[4Pal]S[Orn][αMeL]LDKK([AEEA-γGlu-C18 diacid])AQ[αMe4Pal]AFIEYLIE[Aib]GPSSGAPPPSGS-NH2 [Example 808]
8.45
